assayedSystem: Sigma non-opioid intracellular receptor 1 (Homo sapiens)
conditionDescription: Compound concentration 10 µM
Description: PDSP Primary Binding target: SIGMAR1 - Compounds are tested at 10 uM concentration, plate are incubated at room temperature in the dark for 90 minutes. Reaction are stopped by vacuum filtration onto 0.3% polyethyleneimine soaked filter mats using Filtermate harvester. Scintilation cocktail is then melted onto microwave-dried filters on a hot plate and the radio activity is counted in Microbia counter.
propertyName: inhibition (%)

# entrySmiles, unitsSymbol, readoutValue
data = [
    ("CC1(C)SSC(C)(C)[C@@H](NC(=O)[C@@H](N)Cc2ccc(O)cc2)C(=O)NCC(=O)N[C@@H](Cc2ccccc2)C(=O)N[C@H]1C(=O)O", "%", 21.7),
    ("C[C@]1(C(=O)N(CCCC(=O)O)Cc2cccc(Cl)c2)CCN1C(=O)c1csc2ccccc12", "%", 32.5),
    ("COc1ccc(OC(F)(F)F)cc1CN[C@H]1CCCN[C@H]1c1ccccc1", "%", 59.9),
    ("COc1cccc([C@H](O)C2CCN(CCc3ccc(F)cc3)CC2)c1OC", "%", 3.05),
    ("O=C(O)C1CN(Cc2ccc(-c3nc4cc(Cc5ccccc5F)ccc4s3)c(F)c2)C1", "%", 5.12),
    ("O=C(O)CC1CCC2(CC1)CCN(c1cc(OC(F)(F)F)ccc1Cl)CC2", "%", -0.46),
    ("COc1cc2nc(N3CCN(C(=O)c4ccco4)CC3)nc(N)c2cc1OC", "%", 68),
    ("CC(C)C[C@H](NC(=O)N1CCCCCC1)C(=O)N[C@H](Cc1cn(C)c2ccccc12)C(=O)N[C@H](Cc1ccccn1)C(=O)O", "%", 4.12),
    ("COc1cccc([C@@H](C)NCCCc2ccccc2Cl)c1", "%", 97.4),
]

* * *

assayedSystem: UniProtKB P14416
Sequence (P14416 whole entry): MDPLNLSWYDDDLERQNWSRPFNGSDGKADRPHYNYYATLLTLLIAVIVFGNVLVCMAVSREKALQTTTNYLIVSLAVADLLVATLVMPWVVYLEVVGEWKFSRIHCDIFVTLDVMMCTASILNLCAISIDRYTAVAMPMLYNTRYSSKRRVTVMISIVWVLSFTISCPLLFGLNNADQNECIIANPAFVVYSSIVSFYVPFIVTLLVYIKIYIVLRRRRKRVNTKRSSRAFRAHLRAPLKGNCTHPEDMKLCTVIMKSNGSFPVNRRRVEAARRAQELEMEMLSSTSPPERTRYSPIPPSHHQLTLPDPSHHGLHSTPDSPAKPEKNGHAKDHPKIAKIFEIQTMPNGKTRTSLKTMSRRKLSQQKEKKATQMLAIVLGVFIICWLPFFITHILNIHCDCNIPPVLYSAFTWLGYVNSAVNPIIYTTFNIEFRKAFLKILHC
conditionDescription: Compound concentration 10 µM
Description: PDSP Primary Binding target: DRD2 - Compounds are tested at 10 uM concentration, plate are incubated at room temperature in the dark for 90 minutes. Reaction are stopped by vacuum filtration onto 0.3% polyethyleneimine soaked filter mats using Filtermate harvester. Scintilation cocktail is then melted onto microwave-dried filters on a hot plate and the radio activity is counted in Microbia counter.
Each entry below lists one item and its recorded inhibition value.

# entrySmiles, inhibition
measured = [
    ("CCc1cc(C(C)=O)c(O)cc1OCCCCCC(C)(C)c1nn[nH]n1", "8.34%"),
    ("COc1cccc([C@H](O)C2CCN(CCc3ccc(F)cc3)CC2)c1OC", "4.57%"),
    ("NC[C@@H]1O[C@H](C23CC4CC(CC(C4)C2)C3)Cc2c1ccc(O)c2O", "21.6%"),
    ("Cc1cc(C)c(N)c(C#Cc2cccc(F)c2)n1", "0.33%"),
    ("O=S1(=O)c2cccc3cccc(c23)N1CCCN1CCN(c2ccc(F)cc2)CC1", "41.2%"),
    ("CCC(=O)NCC[C@@H]1CCc2ccc3c(c21)CCO3", "2.72%"),
]

* * *

assayedSystem: UniProt:P35462
Sequence (P35462 whole entry): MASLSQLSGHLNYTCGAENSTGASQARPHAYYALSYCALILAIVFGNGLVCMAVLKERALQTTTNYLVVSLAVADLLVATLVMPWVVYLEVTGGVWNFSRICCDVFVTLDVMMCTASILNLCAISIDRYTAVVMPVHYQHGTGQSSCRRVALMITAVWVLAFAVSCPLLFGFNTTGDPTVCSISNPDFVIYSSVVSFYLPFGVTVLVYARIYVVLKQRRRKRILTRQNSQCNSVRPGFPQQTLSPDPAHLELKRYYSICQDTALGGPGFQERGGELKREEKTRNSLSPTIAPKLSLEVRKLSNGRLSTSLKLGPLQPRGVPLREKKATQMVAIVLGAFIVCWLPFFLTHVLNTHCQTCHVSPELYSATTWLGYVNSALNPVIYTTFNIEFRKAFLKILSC
conditionDescription: Compound concentration 10 µM
Description: PDSP Primary Binding target: DRD3 - Compounds are tested at 10 uM concentration, plate are incubated at room temperature in the dark for 90 minutes. Reaction are stopped by vacuum filtration onto 0.3% polyethyleneimine soaked filter mats using Filtermate harvester. Scintilation cocktail is then melted onto microwave-dried filters on a hot plate and the radio activity is counted in Microbia counter.
Each entry below lists one item and its recorded inhibition value.

# entrySmiles, unitsSymbol, inhibition
rows = [
    ("CCCCN1CCC(COC(=O)c2cc(Cl)c(N)c3c2OCCO3)CC1", "%", 58.8),
    ("N#Cc1c(O)nc(SCc2cccc(F)c2F)nc1C1CC1", "%", 2.3),
    ("COc1ccc2[nH]cc(CCNC(C)=O)c2c1", "%", -7.6),
    ("COc1ccc(S(=O)(=O)N2c3ccc(Cl)cc3[C@](O)(c3ccccc3Cl)[C@@H]2C(=O)N2CCC[C@H]2C(N)=O)cc1OC", "%", 40.4),
    ("CN(C)S(=O)(=O)c1ccc(NC(=S)N2CCC(C(O)(c3ccccc3)c3ccccc3)CC2)cc1", "%", 21.5),
    ("COc1cc2nc(N3CCN(C(=O)c4ccco4)CC3)nc(N)c2cc1OC", "%", 37.6),
    ("NCCc1cn(S(=O)(=O)c2c(Cl)nc3sccn23)c2ccccc12", "%", 32),
    ("O=c1ccn([C@@H]2O[C@H](COP(=O)(O)OP(=O)(O)O)[C@@H](O)[C@H]2O)c(=O)[nH]1", "%", 7.98),
    ("CN1C[C@H](C(=O)N[C@]2(C)O[C@@]3(O)[C@@H]4CCCN4C(=O)[C@H](Cc4ccccc4)N3C2=O)C[C@@H]2c3cccc4[nH]cc(c34)C[C@H]21", "%", 97.8),
]
